Data provenance: the supplement of paper PMC10567573

B1: MLL5 (parent)
chain: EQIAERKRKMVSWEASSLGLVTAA

Variants of: B1
Assay: protein stability index of a GFP-peptide fusion (GPS, HEK-293T) (PSI 1-6); higher = more stable;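 further: lentivirally expressed fusions sorted by FACS into six bins by GFP to DsRed ratio, PSI derived from sequencing read proportions per bin multiplied by bin number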
Conditions: c terminus: a fixed tail appended
Kindly state protein stability index for each of the entries shown.
Numbers only.

# sequenceRecord, protein stability index
records = [
    ("EQIAERKRKMVSWEASSLYLVTAA", 1.84),
    ("EQIAERKRKMVSWEASSLGLVQAA", 3.73),
]

Provide the reported protein stability index of each entry below, same order.
1. ECIAERKRKMVSWEASSLGLVTAA
2. EQCAERKRKMVSWEASSLGLVTAA
3. EQIAEFKRKMVSWEASSLGLVTAA
4. EQIAERKRKMVSWEASSLGLGTAA

1.97
2.46
2.67
3.4

Provide the reported protein stability index of each entry below, same order.
1. EQIAERKRKAVSWEASSLGLVTAA
2. EQIAERKRKMVSWEASSLGLVTCA
3. EQIAERKRFMVSWEASSLGLVTAA
4. EQIAERKRKMVSWEFSSLGLVTAA
5. EQIAERKRKMVSWEASGLGLVTAA
6. EQIAERKRKMVSWEASSFGLVTAA
7. ETIAERKRKMVSWEASSLGLVTAA
8. EQIAERKRKMVSWEASSDGLVTAA

1. 3.83
2. 3.12
3. 2.06
4. 2.08
5. 3.12
6. 2.43
7. 3.25
8. 4.24

Provide the reported protein stability index of each entry below, same order.
1. ENIAERKRKMVSWEASSLGLVTAA
2. EQIAERKRNMVSWEASSLGLVTAA
3. EQIAERKRKMVVWEASSLGLVTAA
4. EQIAERKRTMVSWEASSLGLVTAA
5. EQIAERKRKMVSWEASSLGQVTAA
6. EQIAERKEKMVSWEASSLGLVTAA
7. EQIAERKRKMVSWEASSLGLTTAA
8. EQIAERKRKIVSWEASSLGLVTAA

2.37
3.84
2.68
2.31
3.47
3.98
3.62
2.81

Provide the reported protein stability index of each entry below, same order.
1. EQIAERKRKMVSWEASSLGLVTTA
2. EQNAERKRKMVSWEASSLGLVTAA

2.31
3.64
